Each entry below lists one item and its recorded MIC value.
# System: E. coli ATCC25922
# assay.notes: MIC, microtiter-based liquid assay (CLSI)
# Assay type: cell-based
# conditions: Escherichia coli, ATCC25922, read-out: MIC E. coli ATCC25922 + 50% HS

compound	MIC [µg/mL]
NC[C@H]1O[C@H](O[C@H]2[C@H](O)[C@@H](O[C@H]3O[C@H](CO)[C@@H](O)[C@H](N)[C@H]3O)[C@H](N)C[C@@H]2N)[C@H](N)C[C@@H]1O [Tobramycin, reference compound]	1
C=CC[C@H](NCCCNC(=N)N)c1ccc(-n2cc3cc(-c4cc(CCC[C@H](C)N)cc(Cl)c4F)[nH]c3nc2=O)cc1	0.5
C[C@H](NCCCNC(=N)N)c1ccc(-n2cc3cc(-c4cc(C5CCC(CN)CC5)cc(Cl)c4F)[nH]c3nc2=O)cc1 (stereo partly drawn)	2

* * *

# Tested on: E. coli 1705878
# assay.notes: MIC, microtiter-based liquid assay (CLSI)
# Assay type: cell-based
# conditions: Escherichia coli, MDR strain
measured.endpoint: MIC (µg/mL)

molecule	measured.target	measured.endpoint	units.of.measure	assay.result
CCc1cc(CCC[C@H](C)N)cc(-c2cc3cn(-c4ccc(CNCCCNC(=N)N)cc4)c(=O)nc3[nH]2)c1F [Compound 2]	E. coli 1705878	MIC	µg/mL	1
C=CCC[C@H](NCCCNC(=N)N)c1ccc(-n2cc3cc(-c4cc(CCC[C@H](C)N)cc(Cl)c4F)[nH]c3nc2=O)cc1 [Compound 14]	E. coli 1705878	MIC	µg/mL	1
C[C@H](N)CCCc1cc(-c2cc3cn(-c4ccc([C@H](C)NCCCNC(=N)N)cc4)c(=O)nc3[nH]2)c(F)c(Cl)c1F [Compound 12]	E. coli 1705878	MIC	µg/mL	0.25
C[C@H](N)CCCc1cc(-c2cc3cn(-c4ccc(CNCCCNC(=N)N)cc4)c(=O)nc3[nH]2)c(F)c(Cl)c1F [Compound 13]	E. coli 1705878	MIC	µg/mL	0.25

* * *

Recorded MIC values (S. pneumoniae 02J1175 Mef(A)) are given below.

structure.notation	MIC [µg/mL]
C[C@H](N)CCCc1cc(Cl)c(F)c(-c2cc3cn(-c4ccc([C@H](N)CCCCNC(=N)N)cc4)c(=O)nc3[nH]2)c1	0.25
C=C[C@H](NCCCNC(=N)N)c1ccc(-n2cc3cc(-c4cc(CCC[C@H](C)N)cc(Cl)c4F)[nH]c3nc2=O)cc1	0.25
C[C@H](NCCCNC(=N)N)c1ccc(-n2cc3cc(-c4cc(CCC[C@@H](N)CF)cc(Cl)c4F)[nH]c3nc2=O)cc1	0.125
CCc1cc(CCC[C@H](C)N)cc(-c2cc3cn(-c4ccc(CNCCCNC(=N)N)cc4)c(=O)nc3[nH]2)c1F	0.125
C[C@H](N)CCCc1cc(-c2cc3cn(-c4ccc([C@H](C)NCCCNC(=N)N)cc4)c(=O)nc3[nH]2)c(F)c(Cl)c1F	0.125
C[C@H](N)CCCc1cc(Cl)c(F)c(-c2cc3cn(-c4ccc([C@H](CCNc5nccs5)NCCCNC(=N)N)cc4)c(=O)nc3[nH]2)c1	0.25

* * *

Each entry below lists one item and its recorded MIC value.
# System: S. aureus 11540 MRSA
# assay.notes: MIC, microtiter-based liquid assay (CLSI)
# Assay type: cell-based
# conditions: Staphylococcus aureus

molecule	MIC [µg/mL]
C[C@H](NCCCNC(=N)N)c1ccc(-n2cc3cc(-c4cc(CCC[C@@H](N)CF)cc(Cl)c4F)[nH]c3nc2=O)cc1	0.25
CC(C)c1cc(CCC[C@H](C)N)cc(-c2cc3cn(-c4ccc([C@H](C)NCCCNC(=N)N)cc4)c(=O)nc3[nH]2)c1F	0.5
C[C@H](N)CCCc1cc(Cl)c(F)c(-c2cc3cn(-c4ccc([C@H](N)CCCCNC(=N)N)cc4)c(=O)nc3[nH]2)c1	0.25
C[C@H](NCCCNC(=N)N)c1ccc(-n2cc3cc(-c4cc(CCC[C@@H](N)CO)cc(Cl)c4F)[nH]c3nc2=O)cc1	0.125
CN(C)c1cc(NC(=O)CNC(C)(C)C)c(O)c2c1C[C@H]1C[C@H]3[C@H](N(C)C)C(O)=C(C(N)=O)C(=O)[C@@]3(O)C(O)=C1C2=O [Tigecycline, reference compound]	0.25
C[C@H](N)CCCc1cc(-c2cc3cn(-c4ccc([C@H](C)NCCCNC(=N)N)cc4)c(=O)nc3[nH]2)c(F)c(Cl)c1F	0.125
NC[C@H]1O[C@H](O[C@H]2[C@H](O)[C@@H](O[C@H]3O[C@H](CO)[C@@H](O)[C@H](N)[C@H]3O)[C@H](N)C[C@@H]2N)[C@H](N)C[C@@H]1O [Tobramycin, reference compound]	0.5

Data credit: patent US9937183B2
